TARGET OF ASSAY: a1AR
PROCEDURE TEXT: [125I]HEAT saturation binding isotherms in human vessel membranes
CONDITION SET: saphenous vein; n=2-4
EXPERIMENTAL ENDPOINT: Kd (nM)

COMPOUND	EXPERIMENTAL ENDPOINT	READOUT UNIT	READOUT VALUE
O=C1c2ccccc2CCC1CNCCc1ccc(O)c(I)c1 (stereo not shown) [^125I-HEAT]	Kd	nM	0.13

---

TARGET OF ASSAY: a1AR
PROCEDURE TEXT: [125I]HEAT saturation binding isotherms in human vessel membranes
CONDITION SET: mammary artery; n=2-4

COMPOUND	Kd, pM
O=C1c2ccccc2CCC1CNCCc1ccc(O)c(I)c1 (stereo not shown) [^125I-HEAT]	130

---

TARGET OF ASSAY: a1AR
PROCEDURE TEXT: [125I]HEAT saturation binding isotherms in human vessel membranes
CONDITION SET: aorta; n=2-4
EXPERIMENTAL ENDPOINT: Kd (nM)

MOLECULE	TARGET OF ASSAY	READOUT UNIT	READOUT VALUE
O=C1c2ccccc2CCC1CNCCc1ccc(O)c(I)c1 (stereo not shown) [^125I-HEAT]	a1AR	nM	0.13
